biological target: Muscarinic acetylcholine receptor (Rattus norvegicus) (UniProt P08482+P08483+P08485+P08911+P10980); test: Ratio of Ki value for QNB to that of Ki value for Oxo-M.; type: protein assay
# label = bin(measured Ki ratio), where bins are zone 1 (below 30), zone 2 (30 to below 60), zone 3 (60 or more)

- Cc1cncn1CC#CCN1CCN(C)C1=O: zone 2
- CC(=O)N(C)CC#CCn1cncc1C: zone 2
- COC(=O)N(C)C(C)C#CCN1CCCC1 (stereo unspecified): zone 2
- COC(=O)N(C)CC#CCn1cncc1C: zone 1
- Cc1cncn1CC#CC(C)N1CCCC1=O (stereo unspecified): zone 1
- Cc1cncn1CC#CCN1CCCC1=O: zone 1
- O=C1NCCN1CC#CCN1CCCC1: zone 3
- COC(=O)N(C)CC#CCN1CCCC1: zone 3
- CC1CCC(=O)N1CC#CCn1ccnc1 (stereo unspecified): zone 1
- CN1CCN(CC#CCn2ccnc2)C1=O: zone 3
- CC(C#CCn1ccnc1)N1CCCC1=O (stereo unspecified): zone 1
- O=C1OCCN1CC#CCn1ccnc1: zone 3
- CC1CCC(=O)N1CC#CCN1CCCC1 (stereo unspecified): zone 1
- CC(=O)N(C)CC#CCN1CCCC1: zone 3
- COC(=O)NCC#CCn1cncc1C: zone 2
- CC1CCC(=O)N1CC#CCN(C)C (stereo unspecified): zone 3

FYI, the data here is from ChEMBL document CHEMBL1125599.
